The following variants are shown together with reported protein stability index values.
B1: NECAB1 (parent)
chain: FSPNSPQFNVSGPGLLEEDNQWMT

Variants of: B1
Assay: protein stability index of a GFP-peptide fusion (GPS, HEK-293T) (PSI 1-6); higher = more stable;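 note: lentivirally expressed fusions sorted by FACS into six bins by GFP to DsRed ratio, PSI derived from sequencing read proportions per bin multiplied by bin number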
Settings: c terminus: a fixed tail appended
Answer with a number only.

In plain terms, FSRNSPQFNVSGPGLLEEDNQWMT [P3R] has a documented protein stability index of 2.88

Query FSPNSPQFNVHGPGLLEEDNQWMT [S11H] yields protein stability index of 2.5

// sample FLPNSPQFNVSGPGLLEEDNQWMT [S2L] , its protein stability index was 3.37

Reported protein stability index ( FSPNSPQFNVSSPGLLEEDNQWMT [G12S] ) = 3.13

Memo: FSPNSPQFNVSGPGLLEMDNQWMT [E18M] , reported protein stability index: 2.65

Lookup result for FSPNSPQFNVSGPGLLEEDNQWIT [M23I] ; measured protein stability index: 2.45

// protein stability index value for FSPNSPQFNVSGPGLLSEDNQWMT [E17S] : 2.98

Form field protein stability index, entry FSPNSPQFNYSGPGLLEEDNQWMT [V10Y] : 2.89

More entries:
response.value for FSPNSPQFNVSGPGWLEEDNQWMT [L15W] (field: protein stability index) = 2.68

Documented protein stability index of FSPNSPQFNVSGPGLHEEDNQWMT [L16H] : 3.98

GET /value?item= FSPNRPQFNVSGPGLLEEDNQWMT [S5R] &field=protein stability index returns 2.78

Form: variant = FSPNSPQFNVSGPGLLEEDNQWYT [M23Y] ; protein stability index = 2.77

# protein stability index (variant: FSPNSPQFNVSKPGLLEEDNQWMT [G12K] ) is 2.85

Lookup result for FSPNSPQFNVSGPGLLEEDNQWMW [T24W] ; measured protein stability index: 1.69

The recorded protein stability index for FSPNSPQFNVSGPGLLEEDNQWMQ [T24Q] is 3.04

FWPNSPQFNVSGPGLLEEDNQWMT [S2W] yielded protein stability index of 2.58

Looking up FSPNSPQFNVSGPGLLDEDNQWMT [E17D] , I see its protein stability index listed as 2.74

Per the record, FSPNSPQFNVSGPGLLEEDNQWFT [M23F] has protein stability index of 2.44

Note to self: protein stability index recorded for FSPNSPNFNVSGPGLLEEDNQWMT [Q7N] was 2.89

The reported protein stability index of the variant FSPNSPQFNVSGPGLLEEDNQQMT [W22Q] was 4.03

variant FSPNSPQFHVSGPGLLEEDNQWMT [N9H] , protein stability index observed: 2.22

According to the records, this variant FSPNSPQFNVDGPGLLEEDNQWMT [S11D] displays protein stability index of 3.73
